B1: RBBP5 (parent)
chain: TGTSNTTAIKSIEFARKGSCFLIN

Variants of: B1
Experiment: protein stability index of a GFP-peptide fusion (GPS, HEK-293T) (PSI 1-6); higher = more stable;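 also: lentivirally expressed fusions sorted by FACS into six bins by GFP to DsRed ratio, PSI derived from sequencing read proportions per bin multiplied by bin number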
Details: c terminus: a fixed tail appended
Classification field: enter true (1) for protein stability index values not below 2, false (0) for values below it.

Query: Is the recorded value of protein stability index equal to or greater than 2 for this variant? T6E
Response: true (1)

Query: Is the recorded value of protein stability index equal to or greater than 2 for this variant? G2K
Response: true (1)

Query: Is the recorded value of protein stability index equal to or greater than 2 for this variant? L22A
Response: true (1)

Query: Is the recorded value of protein stability index equal to or greater than 2 for this variant? E13P
Response: false (0)

Query: Is the recorded value of protein stability index equal to or greater than 2 for this variant? R16C
Response: false (0)

Query: Is the recorded value of protein stability index equal to or greater than 2 for this variant? S4Q
Response: true (1)

Query: Is the recorded value of protein stability index equal to or greater than 2 for this variant? I9M
Response: true (1)

Query: Is the recorded value of protein stability index equal to or greater than 2 for this variant? L22N
Response: true (1)

Query: Is the recorded value of protein stability index equal to or greater than 2 for this variant? N24E
Response: true (1)

Query: Is the recorded value of protein stability index equal to or greater than 2 for this variant? I9R
Response: true (1)

Query: Is the recorded value of protein stability index equal to or greater than 2 for this variant? L22V
Response: true (1)

Query: Is the recorded value of protein stability index equal to or greater than 2 for this variant? N5L
Response: false (0)

Query: Is the recorded value of protein stability index equal to or greater than 2 for this variant? A8I
Response: false (0)

Query: Is the recorded value of protein stability index equal to or greater than 2 for this variant? R16A
Response: false (0)

Query: Is the recorded value of protein stability index equal to or greater than 2 for this variant? N5K
Response: true (1)

Query: Is the recorded value of protein stability index equal to or greater than 2 for this variant? T6K
Response: true (1)

Query: Is the recorded value of protein stability index equal to or greater than 2 for this variant? L22E
Response: true (1)

Query: Is the recorded value of protein stability index equal to or greater than 2 for this variant? K10A
Response: false (0)

Query: Is the recorded value of protein stability index equal to or greater than 2 for this variant? A15F
Response: true (1)

Query: Is the recorded value of protein stability index equal to or greater than 2 for this variant? S4N
Response: true (1)

Query: Is the recorded value of protein stability index equal to or greater than 2 for this variant? F21G
Response: true (1)

Query: Is the recorded value of protein stability index equal to or greater than 2 for this variant? S19L
Response: true (1)

Query: Is the recorded value of protein stability index equal to or greater than 2 for this variant? I12S
Response: true (1)

Query: Is the recorded value of protein stability index equal to or greater than 2 for this variant? L22C
Response: true (1)

Query: Is the recorded value of protein stability index equal to or greater than 2 for this variant? K10Q
Response: true (1)

Query: Is the recorded value of protein stability index equal to or greater than 2 for this variant? S4E
Response: true (1)

Query: Is the recorded value of protein stability index equal to or greater than 2 for this variant? I23A
Response: true (1)

Query: Is the recorded value of protein stability index equal to or greater than 2 for this variant? E13T
Response: true (1)

Query: Is the recorded value of protein stability index equal to or greater than 2 for this variant? F21Y
Response: true (1)

Query: Is the recorded value of protein stability index equal to or greater than 2 for this variant? G2D
Response: true (1)

Query: Is the recorded value of protein stability index equal to or greater than 2 for this variant? G18I
Response: true (1)

Query: Is the recorded value of protein stability index equal to or greater than 2 for this variant? I9N
Response: true (1)

Query: Is the recorded value of protein stability index equal to or greater than 2 for this variant? G2I
Response: false (0)

Query: Is the recorded value of protein stability index equal to or greater than 2 for this variant? K17P
Response: true (1)

Query: Is the recorded value of protein stability index equal to or greater than 2 for this variant? T1G
Response: true (1)

Query: Is the recorded value of protein stability index equal to or greater than 2 for this variant? I23Y
Response: true (1)

Query: Is the recorded value of protein stability index equal to or greater than 2 for this variant? A8D
Response: true (1)

Query: Is the recorded value of protein stability index equal to or greater than 2 for this variant? S19V
Response: true (1)

Query: Is the recorded value of protein stability index equal to or greater than 2 for this variant? S19N
Response: true (1)

Query: Is the recorded value of protein stability index equal to or greater than 2 for this variant? I23S
Response: true (1)

Query: Is the recorded value of protein stability index equal to or greater than 2 for this variant? T7A
Response: true (1)

Query: Is the recorded value of protein stability index equal to or greater than 2 for this variant? F21E
Response: true (1)

Query: Is the recorded value of protein stability index equal to or greater than 2 for this variant? T7E
Response: true (1)

Query: Is the recorded value of protein stability index equal to or greater than 2 for this variant? S19D
Response: true (1)

Query: Is the recorded value of protein stability index equal to or greater than 2 for this variant? S19E
Response: true (1)

Query: Is the recorded value of protein stability index equal to or greater than 2 for this variant? G2T
Response: true (1)

Query: Is the recorded value of protein stability index equal to or greater than 2 for this variant? I9H
Response: true (1)

Query: Is the recorded value of protein stability index equal to or greater than 2 for this variant? I12Q
Response: true (1)

Query: Is the recorded value of protein stability index equal to or greater than 2 for this variant? S19G
Response: false (0)

Query: Is the recorded value of protein stability index equal to or greater than 2 for this variant? T3I
Response: false (0)

Query: Is the recorded value of protein stability index equal to or greater than 2 for this variant? I12P
Response: true (1)

Query: Is the recorded value of protein stability index equal to or greater than 2 for this variant? F21Q
Response: true (1)

Query: Is the recorded value of protein stability index equal to or greater than 2 for this variant? I12M
Response: true (1)

Query: Is the recorded value of protein stability index equal to or greater than 2 for this variant? C20S
Response: true (1)

Query: Is the recorded value of protein stability index equal to or greater than 2 for this variant? S19I
Response: true (1)

Query: Is the recorded value of protein stability index equal to or greater than 2 for this variant? A15T
Response: false (0)

Query: Is the recorded value of protein stability index equal to or greater than 2 for this variant? K10E
Response: true (1)

Query: Is the recorded value of protein stability index equal to or greater than 2 for this variant? N24A
Response: false (0)

Query: Is the recorded value of protein stability index equal to or greater than 2 for this variant? S4G
Response: true (1)

Query: Is the recorded value of protein stability index equal to or greater than 2 for this variant? S4I
Response: true (1)

Query: Is the recorded value of protein stability index equal to or greater than 2 for this variant? G2E
Response: true (1)

Query: Is the recorded value of protein stability index equal to or greater than 2 for this variant? A8W
Response: true (1)

Query: Is the recorded value of protein stability index equal to or greater than 2 for this variant? S11E
Response: true (1)

Query: Is the recorded value of protein stability index equal to or greater than 2 for this variant? L22G
Response: true (1)

Query: Is the recorded value of protein stability index equal to or greater than 2 for this variant? I9C
Response: true (1)

Query: Is the recorded value of protein stability index equal to or greater than 2 for this variant? E13Q
Response: false (0)

Query: Is the recorded value of protein stability index equal to or greater than 2 for this variant? G18L
Response: true (1)

Query: Is the recorded value of protein stability index equal to or greater than 2 for this variant? S19T
Response: false (0)

Query: Is the recorded value of protein stability index equal to or greater than 2 for this variant? F14R
Response: true (1)

Query: Is the recorded value of protein stability index equal to or greater than 2 for this variant? F21A
Response: true (1)

Query: Is the recorded value of protein stability index equal to or greater than 2 for this variant? F14M
Response: true (1)

Query: Is the recorded value of protein stability index equal to or greater than 2 for this variant? S11H
Response: true (1)

Query: Is the recorded value of protein stability index equal to or greater than 2 for this variant? I12T
Response: true (1)

Query: Is the recorded value of protein stability index equal to or greater than 2 for this variant? T7S
Response: true (1)

Query: Is the recorded value of protein stability index equal to or greater than 2 for this variant? E13M
Response: true (1)

Query: Is the recorded value of protein stability index equal to or greater than 2 for this variant? T3A
Response: true (1)

Query: Is the recorded value of protein stability index equal to or greater than 2 for this variant? A15D
Response: true (1)

Query: Is the recorded value of protein stability index equal to or greater than 2 for this variant? T3H
Response: true (1)

Query: Is the recorded value of protein stability index equal to or greater than 2 for this variant? S11F
Response: true (1)

Query: Is the recorded value of protein stability index equal to or greater than 2 for this variant? G18K
Response: true (1)

Query: Is the recorded value of protein stability index equal to or greater than 2 for this variant? I12Y
Response: true (1)

Query: Is the recorded value of protein stability index equal to or greater than 2 for this variant? A15H
Response: true (1)
